# TESTED ON: E1E2 of HCV isolate AMS.1b.20877857 (genotype 1b) (Hepatitis C virus genotype 1b)
# RUN DESCRIPTION: cell-based or functional assay

{"BINDER": "AT12-009 (antibody, V domains shown) VH: SSVRVSCKASGDTFKTHAISWVRQAPGQGLEWVGGTVRQAPGDGLELLGGFVPILAPANDAQKFQGRVTITADGSTGPVYMDLSTLTSEDTAMYYCVTSLSEPIPRSCRGGRCYSGPFDAFGVWGQGTMVTVSS VL: ETMLTQSPVTLSVSPGERATLSCRASQSIGTNLAWYQQKPGQAPRLLIHGASTRATGVPVSFSGSGSGTEFTLTISSLQSEDFAVYYCQQYNNWPLTFGGGTKVDFKR", "IC90, HCVpp neutralization / µg/mL": 0.13}

// provenance: patent US20170313764A1
